- test target: hT1R1/hT1R3 umami receptor (Homo sapiens, UniProt Q7RTX0+Q7RTX1)
- Construct: expressed in transfected cells; host or cells: HEK293 derivative stably expressing Gα15, clone I-17, expression induced with mifepristone
- Sequence (Q7RTX1 21-841): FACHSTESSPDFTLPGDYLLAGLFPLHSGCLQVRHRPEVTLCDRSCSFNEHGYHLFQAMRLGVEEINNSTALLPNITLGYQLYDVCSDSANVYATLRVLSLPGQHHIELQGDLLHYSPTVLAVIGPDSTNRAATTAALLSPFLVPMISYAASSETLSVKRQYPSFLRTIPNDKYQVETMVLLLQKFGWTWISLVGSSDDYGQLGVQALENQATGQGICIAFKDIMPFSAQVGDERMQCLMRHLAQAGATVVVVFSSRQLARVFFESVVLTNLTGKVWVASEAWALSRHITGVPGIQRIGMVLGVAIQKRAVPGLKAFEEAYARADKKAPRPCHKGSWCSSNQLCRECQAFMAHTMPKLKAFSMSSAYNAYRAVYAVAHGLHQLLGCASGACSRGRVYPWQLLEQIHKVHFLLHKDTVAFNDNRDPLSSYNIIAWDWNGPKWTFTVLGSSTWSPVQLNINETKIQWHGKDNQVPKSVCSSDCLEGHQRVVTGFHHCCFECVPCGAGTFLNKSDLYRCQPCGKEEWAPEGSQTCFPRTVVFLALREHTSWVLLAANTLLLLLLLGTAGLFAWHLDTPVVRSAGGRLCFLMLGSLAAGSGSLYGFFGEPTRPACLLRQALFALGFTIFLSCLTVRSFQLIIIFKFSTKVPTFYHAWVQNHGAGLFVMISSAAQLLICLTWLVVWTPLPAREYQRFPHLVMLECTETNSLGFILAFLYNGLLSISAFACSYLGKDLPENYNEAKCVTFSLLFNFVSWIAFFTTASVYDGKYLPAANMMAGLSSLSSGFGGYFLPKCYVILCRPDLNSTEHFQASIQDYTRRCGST
- Sequence (Q7RTX0 21-852): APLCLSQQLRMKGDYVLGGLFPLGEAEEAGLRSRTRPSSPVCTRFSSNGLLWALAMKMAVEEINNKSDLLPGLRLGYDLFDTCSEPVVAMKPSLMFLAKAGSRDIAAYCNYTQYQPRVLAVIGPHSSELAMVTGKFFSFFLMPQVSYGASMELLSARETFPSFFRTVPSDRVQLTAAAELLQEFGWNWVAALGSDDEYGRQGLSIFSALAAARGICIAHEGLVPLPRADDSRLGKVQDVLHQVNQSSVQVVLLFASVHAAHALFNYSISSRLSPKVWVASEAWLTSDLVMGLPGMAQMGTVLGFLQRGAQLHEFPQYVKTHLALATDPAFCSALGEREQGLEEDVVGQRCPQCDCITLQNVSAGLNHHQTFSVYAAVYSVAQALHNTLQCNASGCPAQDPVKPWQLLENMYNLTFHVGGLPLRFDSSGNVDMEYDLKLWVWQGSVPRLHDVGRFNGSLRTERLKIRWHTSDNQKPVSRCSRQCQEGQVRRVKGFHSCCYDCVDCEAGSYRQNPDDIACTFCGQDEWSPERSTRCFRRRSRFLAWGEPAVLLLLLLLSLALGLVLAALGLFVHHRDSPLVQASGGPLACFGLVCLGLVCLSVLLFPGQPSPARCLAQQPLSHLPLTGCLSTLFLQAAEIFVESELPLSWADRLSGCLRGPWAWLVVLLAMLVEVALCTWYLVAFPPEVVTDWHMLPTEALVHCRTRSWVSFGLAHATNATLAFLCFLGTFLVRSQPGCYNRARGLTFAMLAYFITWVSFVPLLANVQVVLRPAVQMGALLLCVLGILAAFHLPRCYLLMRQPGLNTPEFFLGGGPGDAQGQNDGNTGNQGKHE
- assay name: In vitro hT1R1/hT1R3 umami taste receptor activation assay (FLIPR, dose response)
- Assay type: cell-based
- test conditions: Table B, Umami Oxalamides; read-out: Umami EC50
pEC50: −log10 of the molar value.
measured quantity: pEC50

Consider the reported pEC50 for these compounds:
chemical_structure=CCOc1ccc(CNC(=O)C(=O)NCCc2ccc(C)cn2)c(OC)c1 measured=6.72
chemical_structure=Cc1c(CNC(=O)C(=O)NCCc2ccccn2)sc2ccccc12 measured=6.09

P. CC(C)Oc1ccccc1CNC(=O)C(=O)NCCc1ccccn1
Q. COc1ccc(CNC(=O)C(=O)NCCc2ccco2)c(OC)c1
stdin: Consider entries P and Q . Which has the numerically lower pEC50? API: response body contains the label of the selected item.
stdout: P
(P: 5.91, Q: 6.74)

====

- test target: hT1R1/hT1R3 umami receptor (Homo sapiens, UniProt Q7RTX0+Q7RTX1)
- Construct: expressed in transfected cells; host or cells: HEK293 derivative stably expressing Gα15, clone I-17, expression induced with mifepristone
- assay name: In vitro hT1R1/hT1R3 umami taste receptor activation assay (FLIPR, dose response)
- Format: cell-based
- test conditions: Table A, Umami Amides; read-out: Umami EC50
measured quantity: EC50 (nM)

compound=CCCC(CCC)NC(=O)c1ccc(Br)o1 measured_quantity=EC50 measured=490
compound=COC[C@@H](CC(C)C)NC(=O)c1ccc(SC)c(C)c1 measured_quantity=EC50 measured=290
compound=COc1ccc([C@@H](C)NC(=O)c2ccc(OC)c(Cl)c2)cc1 measured_quantity=EC50 measured=600
compound="COc1ccc2c(c1)CCC2NC(=O)c1cccc(OC)c1N (stereo not drawn)" measured_quantity=EC50 measured=40
compound="CCCC(CCC)NC(=O)c1ccc(OCC)cc1 [Example A68, 4-ethoxy-N-(heptan-4-yl)benzamide]" measured_quantity=EC50 measured=320
compound="COc1ccc(C(=O)NC(C)CCc2ccccc2)cc1C (stereo not drawn)" measured_quantity=EC50 measured=400
compound=COC(=O)[C@@H](CC(C)C)NC(=O)c1ccc(C)c(OC)c1 measured_quantity=EC50 measured=340

P. CCCC(CCC)NC(=O)c1ccc(SC)cc1 [Example A75, N-(heptan-4-yl)-4-(methylthio)benzamide]
Q. CCCC(CCC)NC(=O)c1ccc(C)s1
stdin: Which one would you say has the larger EC50 value: P , or Q ? API: response body contains the label of the selected item.
stdout: Q
(Q: 1220 nM, P: 390 nM)

====

- test target: hT1R2/hT1R3 sweet receptor (Homo sapiens, UniProt Q7RTX0+Q8TE23)
- Construct: expressed in transfected cells; host or cells: HEK293 derivative stably expressing Gα15, clone S-9
- Sequence (Q8TE23 20-839, one chain of several): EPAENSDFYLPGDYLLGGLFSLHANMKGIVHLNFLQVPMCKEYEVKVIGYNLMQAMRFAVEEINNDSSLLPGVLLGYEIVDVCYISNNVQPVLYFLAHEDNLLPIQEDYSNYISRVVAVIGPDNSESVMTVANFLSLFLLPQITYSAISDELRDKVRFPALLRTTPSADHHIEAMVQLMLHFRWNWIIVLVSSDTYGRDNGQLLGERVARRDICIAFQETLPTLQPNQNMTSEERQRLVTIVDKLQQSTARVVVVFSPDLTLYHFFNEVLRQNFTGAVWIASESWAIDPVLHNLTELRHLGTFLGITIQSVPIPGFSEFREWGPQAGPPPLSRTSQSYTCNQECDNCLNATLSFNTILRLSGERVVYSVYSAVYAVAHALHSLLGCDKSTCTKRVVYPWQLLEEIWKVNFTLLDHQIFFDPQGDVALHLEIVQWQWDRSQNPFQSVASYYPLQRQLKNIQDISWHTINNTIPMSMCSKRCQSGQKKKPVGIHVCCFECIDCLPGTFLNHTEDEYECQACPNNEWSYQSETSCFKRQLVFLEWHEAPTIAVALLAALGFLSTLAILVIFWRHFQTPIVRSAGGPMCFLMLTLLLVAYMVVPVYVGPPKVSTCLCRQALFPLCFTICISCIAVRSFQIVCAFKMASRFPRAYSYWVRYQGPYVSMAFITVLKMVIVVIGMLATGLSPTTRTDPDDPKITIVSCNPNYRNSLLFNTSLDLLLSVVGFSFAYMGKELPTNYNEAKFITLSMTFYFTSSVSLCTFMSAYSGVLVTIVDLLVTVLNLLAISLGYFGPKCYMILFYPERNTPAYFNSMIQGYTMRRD
- assay name: In vitro hT1R2/hT1R3 sweet taste receptor activation assay (FLIPR, dose response)
- Assay type: cell-based
- test conditions: Table E, Sweet Enhancer Amides; read-out: Sweet EC50
pEC50: −log10 of the molar value.
measured quantity: pEC50

Consider the reported pEC50 for these compounds:
compound="Cc1cccc(C(=O)NC2CCCCC2C)c1C (stereo not drawn) [Example E63]" measured_quantity=pEC50 measured=5.59
compound="CC1CCCCC1NC(=O)c1cc(F)cc(Cl)c1 (stereo not drawn) [Example E30]" measured_quantity=pEC50 measured=6.35
compound="Cc1c(F)c(F)c(C(=O)N[C@H](C)C(C)(C)C)c(F)c1F [Example E31]" measured_quantity=pEC50 measured=6.31
compound="Cc1cc(C)c(C(=O)NC2CCCCC2C)c(C)c1 (stereo not drawn) [Example E36]" measured_quantity=pEC50 measured=6.14

I. O=C(NC1CCCc2c(O)cccc21)c1cccc(Cl)c1O (stereo not drawn) [Example E3]
II. CC1CCCCC1NC(=O)c1cccc(C(F)(F)F)c1 (stereo not drawn) [Example E59]
III. CCOc1c(F)c(F)c(C(=O)N[C@@H](C)C(C)C)c(F)c1F [Example E133]
IV. COc1c(Cl)ccc(Cl)c1C(=O)Nc1ccc(C)cc1C [Example E97]
stdin: Hello, I need these entries ordered by pEC50, highest reading first. Thanks! Put the labels in the requested order and write them down.
stdout: III, I, II, IV

====

- test target: hT1R1/hT1R3 umami receptor (Homo sapiens, UniProt Q7RTX0+Q7RTX1)
- Construct: expressed in transfected cells; host or cells: HEK293 derivative stably expressing Gα15, clone I-17, expression induced with mifepristone
- Sequence (Q7RTX1 21-841): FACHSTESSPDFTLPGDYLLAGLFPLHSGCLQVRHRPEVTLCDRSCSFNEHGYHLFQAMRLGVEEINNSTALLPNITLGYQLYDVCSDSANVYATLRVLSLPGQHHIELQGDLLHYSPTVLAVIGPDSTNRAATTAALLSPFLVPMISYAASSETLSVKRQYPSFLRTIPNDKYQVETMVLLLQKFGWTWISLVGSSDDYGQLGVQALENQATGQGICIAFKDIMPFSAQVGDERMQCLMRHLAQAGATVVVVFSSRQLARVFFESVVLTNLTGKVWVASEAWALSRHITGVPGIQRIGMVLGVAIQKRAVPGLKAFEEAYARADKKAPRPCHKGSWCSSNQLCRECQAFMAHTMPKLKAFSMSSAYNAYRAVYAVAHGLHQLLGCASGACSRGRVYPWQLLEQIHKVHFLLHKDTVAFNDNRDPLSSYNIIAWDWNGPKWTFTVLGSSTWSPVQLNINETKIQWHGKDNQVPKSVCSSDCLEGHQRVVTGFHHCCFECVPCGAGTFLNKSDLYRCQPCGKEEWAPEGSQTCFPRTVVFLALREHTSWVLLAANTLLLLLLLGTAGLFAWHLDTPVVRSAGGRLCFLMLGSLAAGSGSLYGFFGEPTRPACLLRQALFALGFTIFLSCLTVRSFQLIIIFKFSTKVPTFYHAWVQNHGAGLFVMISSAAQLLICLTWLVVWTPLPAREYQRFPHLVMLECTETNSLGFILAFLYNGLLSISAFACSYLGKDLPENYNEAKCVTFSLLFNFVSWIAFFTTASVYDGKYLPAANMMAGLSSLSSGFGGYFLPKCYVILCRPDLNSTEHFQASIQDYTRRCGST
- Sequence (Q7RTX0 21-852): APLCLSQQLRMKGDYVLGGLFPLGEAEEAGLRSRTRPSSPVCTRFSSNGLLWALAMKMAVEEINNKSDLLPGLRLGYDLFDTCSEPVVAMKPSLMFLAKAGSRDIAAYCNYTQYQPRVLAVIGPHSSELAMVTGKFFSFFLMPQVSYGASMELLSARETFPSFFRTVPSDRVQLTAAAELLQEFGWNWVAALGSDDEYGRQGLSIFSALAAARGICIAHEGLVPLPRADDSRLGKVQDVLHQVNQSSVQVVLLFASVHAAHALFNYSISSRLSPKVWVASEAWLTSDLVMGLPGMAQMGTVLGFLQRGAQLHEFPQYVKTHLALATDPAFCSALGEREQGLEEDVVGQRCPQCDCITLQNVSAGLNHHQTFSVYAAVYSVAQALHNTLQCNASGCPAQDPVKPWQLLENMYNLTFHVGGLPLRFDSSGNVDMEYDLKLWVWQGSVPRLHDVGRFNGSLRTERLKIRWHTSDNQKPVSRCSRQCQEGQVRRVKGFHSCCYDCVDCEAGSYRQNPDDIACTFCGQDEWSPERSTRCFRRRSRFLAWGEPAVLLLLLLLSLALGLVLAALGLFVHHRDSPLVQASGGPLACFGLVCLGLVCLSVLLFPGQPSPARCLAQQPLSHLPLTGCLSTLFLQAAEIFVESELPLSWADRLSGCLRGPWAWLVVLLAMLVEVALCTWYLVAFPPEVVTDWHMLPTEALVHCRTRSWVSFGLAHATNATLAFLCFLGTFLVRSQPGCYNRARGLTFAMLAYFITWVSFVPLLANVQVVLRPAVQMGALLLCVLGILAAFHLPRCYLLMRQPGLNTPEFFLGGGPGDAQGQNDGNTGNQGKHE
- assay name: In vitro hT1R1/hT1R3 umami taste receptor activation assay (FLIPR, dose response)
- Type: cell-based
- test conditions: read-out: EC50 for activation of a hT1R1/hT1R3 umami receptor expressed in an HEK293 cell line
measured quantity: EC50 (nM)

P. CCCC(CCC)NC(=O)c1ccc2oc(CC)nc2c1
Q. COc1ccc(CNC(=O)c2sccc2C)c(OC)c1
R. Cc1cc(CNC(=O)C(=O)NCCc2ccccn2)c(C)o1
stdin: Which order do these fall in by EC50? Give them lowest to highest. Put the labels in the requested order and write them down.
stdout: P, R, Q

P. CCCC(CCC)NC(=O)c1cc2ccccc2[nH]1 [Example 35, N-(heptan-4-yl)-1H-indole-2-carboxamide]
Q. CCC(CC(C)C)NC(=O)c1ccc2c(c1)OCO2 (stereo not drawn)
R. CCCC(CCC)NC(=O)c1cnc(C)c(C)n1
stdin: Hello, I need these entries ordered by EC50, highest reading first. Thanks! Put the labels in the requested order and write them down.
stdout: P, R, Q

P. Cc1ccc(CNC(=O)C(=O)NCCc2ccccn2)o1
Q. CCCC(CCC)NC(=O)c1ccc2oc(OC)nc2c1
stdin: Consider entries P and Q . Which has the numerically lower EC50? API: response body contains the label of the selected item.
stdout: Q

A. CC(C)C[C@@H](NC(=O)c1ccc2c(c1)OCO2)C(=O)N1CCCC1CO (stereo partly drawn)
B. CCCC(CCC)NC(=O)c1nccc2ccccc12
C. CCCC(CCC)NC(=O)c1cc2ccccc2n1C
D. CCCC(CCC)NC(=O)c1ccc2c(c1)OCCCO2
E. COC(=O)[C@@H](CC(C)C)NC(=O)/C=C/c1cccs1
stdin: Rank the items in ascending order with respect to EC50. Put the labels in the requested order and write them down.
stdout: E, C, A, D, B

P. COc1ccc(CNC(=O)c2ccc(-c3ccccn3)s2)c(OC)c1
Q. CCCC(CCC)NC(=O)c1ccc2ocnc2c1
R. CC(=O)Oc1ccccc1CNC(=O)C(=O)NCCc1ccccn1
stdin: Rank the items in ascending order with respect to EC50. Put the labels in the requested order and write them down.
stdout: Q, P, R
(Q: 1910 nM, P: 2860 nM, R: 8500 nM)

A. CCCC(NC(=O)c1ccc(OC)c(C)c1)c1ccccn1 (stereo not drawn)
B. COC(=O)[C@@H](CC(C)C)NC(=O)c1cc2cc(Cl)ccc2o1
C. CCCC(CCC)NC(=O)c1ccc(C)c(SC)c1
stdin: Hello, I need these entries ordered by EC50, highest reading first. Thanks! Put the labels in the requested order and write them down.
stdout: A, B, C
(A: 1540 nM, B: 820 nM, C: 210 nM)

a. COc1ccc(CNC(=O)c2ccccc2-n2cccc2)c(OC)c1
b. CCCC(CCC)NC(=O)/C=C/c1ccccc1OC
stdin: Which one would you say has the larger EC50 value: a , or b ? API: response body contains the label of the selected item.
stdout: a
